The measured values listed here are drawn from patent US20240025862A1.

- Tested on: Triticum aestivum (TRZAS)
- TEST_METHOD_NOTES: Post-emergence crop plant compatibility, greenhouse pot test
- Type: in vivo
- RUN_PARAMETERS: 20 g/ha, vs untreated controls
TEST_READOUT: Post-emergence action against TRZAS (crop plant compatibility) (%)
Write the value in % as a bare number.

- Cn1c(C(F)(F)F)cc(=O)n(-c2cc(Oc3ccccc3OCC(=O)OCCOC(F)(F)F)c(C#N)cc2F)c1=O: 20
- COCCOCCOC(=O)COc1ccccc1Oc1cc(-n2c(=O)cc(C(F)(F)F)n(C)c2=O)c(F)cc1C#N: 20
- COCCOC(=O)COc1ccccc1Oc1cc(-n2c(=O)cc(C(F)(F)F)n(C)c2=O)c(F)cc1C#N: 10
- Cn1c(C(F)(F)F)cc(=O)n(-c2cc(Oc3ccccc3OCC(=O)OCC#N)c([N+](=O)[O-])cc2F)c1=O: 20

Prompt: // fetch Triticum aestivum (TRZAS) Post-emergence action against TRZAS (crop plant compatibility) for COCCOCCOC(=O)COc1ccccc1Oc1cc(-n2c(=O)cc(C(F)(F)F)n(C)c2=O)c(F)cc1[N+](=O)[O-]
Completion: 20

Prompt: // fetch Triticum aestivum (TRZAS) Post-emergence action against TRZAS (crop plant compatibility) for Cn1c(C(F)(F)F)cc(=O)n(-c2cc(Oc3ccccc3OCC(=O)OCCOC(F)(F)F)c([N+](=O)[O-])cc2F)c1=O
Completion: 20
